Values were extracted from paper PMC6161302.

# Method Summary: Pharmacokinetic and bioavailability study of KD in beagle dogs (intravenous and oral)
# Format: in vivo, beagle dog
# Particulars: both sexes, dog, plasma; beagle dogs, oral 3 mg/kg vs intravenous 3 mg/kg; read-out: Bioavailability (absolute oral)
Readout Kind: bioavailability
Enter the number, and then the unit.

Ask: // query bioavailability value for entry O=C1C[C@@H](O[C@@H]2O[C@H](CO)[C@@H](O)[C@H](O)[C@H]2O)CO1 [kinsenoside, Kinsenoside]
Reply: 27.6%

----------
# Method Summary: Pharmacokinetic and bioavailability study of KD in beagle dogs (intravenous and oral)
# Format: in vivo, beagle dog
# Particulars: both sexes, beagle, dog, plasma, po, 3 mg/kg, beagle dogs, oral, 3 mg/kg; read-out: AUC0–t
Readout Kind: AUC(0-t)
Kindly format the answer as number then unit.

Ask: Reported AUC(0-t), molecule O=C1C[C@@H](O[C@@H]2O[C@H](CO)[C@@H](O)[C@H](O)[C@H]2O)CO1 [kinsenoside, Kinsenoside] : ____
Reply: 1880 ng·h/mL

----------
# Method Summary: Pharmacokinetic and bioavailability study of KD in beagle dogs (intravenous and oral)
# Format: in vivo, beagle dog
# Particulars: both sexes, dog, plasma; beagle dogs, oral, 3 mg/kg
Readout Kind: half-life (min)
# output: bare number, implied unit min

Ask: Data request, read-out half-life, for O=C1C[C@@H](O[C@@H]2O[C@H](CO)[C@@H](O)[C@H](O)[C@H]2O)CO1 [kinsenoside, Kinsenoside]
Reply: 54.9

----------
# Method Summary: Pharmacokinetic and bioavailability study of KD in beagle dogs (intravenous and oral)
# Format: in vivo, beagle dog
# Particulars: both sexes, beagle, dog, plasma, iv, 3 mg/kg, beagle dogs
Readout Kind: Tmax (min)
Field format: number, assumed min, no unit text.

Ask: Query: Tmax; subject: O=C1C[C@@H](O[C@@H]2O[C@H](CO)[C@@H](O)[C@H](O)[C@H]2O)CO1 [kinsenoside, Kinsenoside]
Reply: 5

----------
# Method Summary: Pharmacokinetic and bioavailability study of KD in beagle dogs (intravenous and oral)
# Type: in vivo, beagle dog
# Particulars: both sexes, dog, plasma; beagle dogs, oral, 3 mg/kg
Readout Kind: AUC(0-inf) (ng·h/mL)
Quick reminder: number only, in ng·h/mL, skip the unit.

Ask: Return reported AUC(0-inf); argument: O=C1C[C@@H](O[C@@H]2O[C@H](CO)[C@@H](O)[C@H](O)[C@H]2O)CO1 [kinsenoside, Kinsenoside]
Reply: 1910

----------
# Method Summary: Pharmacokinetic and bioavailability study of KD in beagle dogs (intravenous and oral)
# Format: in vivo, beagle dog
# Particulars: both sexes, dog, plasma; beagle dogs, intravenous, 3 mg/kg
Readout Kind: clearance (L/h/kg)
Numbers only here, please. The scale is L/h/kg.

Ask: // query clearance value for entry O=C1C[C@@H](O[C@@H]2O[C@H](CO)[C@@H](O)[C@H](O)[C@H]2O)CO1 [kinsenoside, Kinsenoside]
Reply: 0.44

----------
# Method Summary: Pharmacokinetic and bioavailability study of KD in beagle dogs (intravenous and oral)
# Assay type: in vivo, beagle dog
# Particulars: both sexes, dog, plasma; beagle dogs, intravenous, 3 mg/kg; read-out: λz (converted)
Readout Kind: k el (s⁻¹)
All answers are understood in s⁻¹, so give the number only.

Ask: I am curious: what k el value has been reported for O=C1C[C@@H](O[C@@H]2O[C@H](CO)[C@@H](O)[C@H](O)[C@H]2O)CO1 [kinsenoside, Kinsenoside] ?
Reply: 0.000408

----------
# Method Summary: Pharmacokinetic and bioavailability study of KD in beagle dogs (intravenous and oral)
# Assay type: in vivo, beagle dog
# Particulars: both sexes, dog, plasma; beagle dogs, oral, 3 mg/kg; read-out: λz (converted)
Readout Kind: k el (s⁻¹)
Give the quantity in s⁻¹, number only.

Ask: Reported k el for O=C1C[C@@H](O[C@@H]2O[C@H](CO)[C@@H](O)[C@H](O)[C@H]2O)CO1 [kinsenoside, Kinsenoside] : what is it?
Reply: 0.000212
